# Species on record: Rattus norvegicus
# method: Antihypertensive activity expressed as percentage of base-line systolic blood pressure of base-line values in spontaneously hypertensive rats (SHR) was reported after 4 hr; further: test concentration or dose not given here
# Type: functional, Artery
Exercise: state measured Baseline systolic BP for each of the compounds provided.
Return type: number; implicit unit %.

[Q] Query Baseline systolic BP for CC(C)NCC(O)COc1ccc(CCOCC2CCCCC2)cc1.Cl (stereo not given)
[A] -18

[Q] Query Baseline systolic BP for CC(C)NCC(O)COc1ccc(CCS(=O)(=O)CC2CCCCC2)cc1.Cl (stereo not given)
[A] -2

[Q] Query Baseline systolic BP for CC(CCc1ccccc1)NCC(O)COc1ccc(CCOCC2CCC2)cc1 (stereo not given)
[A] 1

[Q] Query Baseline systolic BP for CC(C)NCC(O)COc1ccc(C[S+]([O-])CC2CC2)cc1 (stereo not given)
[A] -8

[Q] Query Baseline systolic BP for CC(C)NCC(O)COc1ccc(C[S+]([O-])CC2CCCC2)cc1 (stereo not given)
[A] -7

[Q] Query Baseline systolic BP for CC(CCc1ccc(F)cc1)NCC(O)COc1ccc(CCOCC2CCC2)cc1 (stereo not given)
[A] -10

[Q] Query Baseline systolic BP for CC(C)NCC(O)COc1ccc(CCOCC2CC2)cc1 (stereo not given) [BETAXOLOL]
[A] 5

[Q] Query Baseline systolic BP for CC(C)NCC(O)COc1ccc(COCC2CC2)cc1 (stereo not given)
[A] -3

[Q] Query Baseline systolic BP for CC(C)NCC(O)COc1ccc(CCS(=O)(=O)CC2CCC2)cc1.Cl (stereo not given)
[A] -13

[Q] Query Baseline systolic BP for Cl.OC(CNC1CC1)COc1ccc(CCOCC2CCC2)cc1 (stereo not given)
[A] -5

[Q] Query Baseline systolic BP for CC(C)NCC(O)COc1ccc(CCOCC2CCCC2)cc1 (stereo not given)
[A] -16

[Q] Query Baseline systolic BP for CC(=O)NCCNCC(O)COc1ccc(CCOCC2CCC2)cc1.Cl (stereo not given)
[A] -8

[Q] Query Baseline systolic BP for CC(C)NCC(O)COc1ccc(CCOC2CCCC2)cc1.Cl (stereo not given)
[A] -16

[Q] Query Baseline systolic BP for CC(C)NCC(O)COc1ccc(CCSCC2CCC2)cc1 (stereo not given)
[A] -6

[Q] Query Baseline systolic BP for CC(C)NCC(O)COc1ccc(CCS(=O)(=O)CC2CCCO2)cc1.Cl (stereo not given)
[A] -16
